So I've got a bunch of binders here, and I need their binding signal values.
Biological target: T1, UNK ZnF1-3 (human, UniProt Q9C0B0 31-174)
T1 sequence: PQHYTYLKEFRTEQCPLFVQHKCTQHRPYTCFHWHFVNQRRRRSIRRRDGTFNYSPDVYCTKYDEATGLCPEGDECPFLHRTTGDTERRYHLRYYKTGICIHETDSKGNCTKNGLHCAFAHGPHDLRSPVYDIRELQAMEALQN
Experiment: nsRBNS (natural sequence RNA bind-n-seq); RBNS binding buffer (assumed for nsRBNS): 25 mM Tris pH 7.5, 150 mM KCl, 3 mM MgCl2, 0.01% Triton X-100, 500 ug/ml BSA, 20 U/ml SUPERase-In, 4 C; UNK is unkempt and MSI1 is Musashi-1; names of the RNAs are library labels; protein concentration not given here; high values mean tight binding
Over roughly 24,000 sequences, “enrichment r” has its median near 0.99; the highest 2% begin near 3.7. For the sample, the highest values were picked, then their nearest neighbours and some sequences at random.
Lab note: write values as number then unit, every time.

## Input Tell me the measured binding signal of chr1:184247048:184247049:-_ENSMUSG00000047539_ENSMUST00000051431|mus_mus|FALSE|FALSE (ssRNA) RNA: GGGAGUUCUACAGUCCGACGAUCCUGGAGCUAGAGCCAUAUUCCAAUCUACUUCCUAUUCCGAAGUCGUUUGGAUUUCCUAAGAGAGUCUAUGGCUUCCGUUGCCUUCCGUCGUUUCCGAGGGGACUCCUCACUCUGCCCAGACAACAGAGGAUUGAGCAUCA , please.
## Output 0.688 enrichment R

## Input Next entry: chr4:109959997:109959998:-_ENSMUSG00000028546_ENSMUST00000106598|mus_mus|FALSE|FALSE (ssRNA) RNA: GGGAGUUCUACAGUCCGACGAUCUAUAUAUAUAUAUUAAAGAUCCACAGACCACAGUGUGGAUGAUUGUAAAGUAAAUCUAUUAUUGGGAGGGGGUGGGGUGGGAAAGAAAGGGGGAAAAAAAAGAGAGGAAGAAAAGGCGCACAACAGAGGAUUGAGCAUCA
## Output 5.2 enrichment R

## Input Next entry: chr8:27092522:27092523:-_ENSMUSG00000037251_ENSMUST00000061850|mus_mus|FALSE|FALSE (ssRNA) RNA: GGGAGUUCUACAGUCCGACGAUCAGCGGGGUGGGUUGUUGUUUGCUGUUGGUCGGUGUUUGUGAAGUGGUCGUGGGCGAAGAAGAAACAAGAAGAAAUGAGAUAUCUUGGCAGCAAAGAUCAUUGCUCCAAGGAACUCGACACCAACAGAGGAUUGAGCAUCA
## Output 1.76 enrichment R

## Input Next entry: chr13:48835921:48835922:+_ENSG00000136156_ENST00000378565|hu_hu|FALSE|FALSE (ssRNA) RNA: GGGAGUUCUACAGUCCGACGAUCGAUAUGGGUUAUACAAAUUAGUAACACAAGUUAUUUCUUAAAUUCCAAACAUUUUCUAAAAUAUUAUUACAGCAGAUGCCUAGGAUAUUAAAACAUAAAGGUGGAAAUCAUUCUCUAAAUCAACAGAGGAUUGAGCAUCA
## Output 1.52 enrichment R

## Input Next entry: chr4:109959997:109959998:-_ENSMUSG00000028546_ENSMUST00000106598|mus_mus|motif|central (ssRNA) RNA: GGGAGUUCUACAGUCCGACGAUCUAUAUAUAUAUAUUAAAGAUCCACAGACCACAGUGUGGAUGAUUGUAAAGUAAAUCGGUUAUUGGGAGGGGGUGGGGUGGGAAAGAAAGGGGGAAAAAAAAGAGAGGAAGAAAAGGCGCACAACAGAGGAUUGAGCAUCA
## Output 5.4 enrichment R

## Input Next entry: chr1:205685097:205685098:-_ENSG00000069275_ENST00000367142|hu_hu|motif|central (ssRNA) RNA: GGGAGUUCUACAGUCCGACGAUCUAUCAAGCCUGACUAUUGAGCACCUGUAUCCAGUUGAGUCACCACCACUGUCCUCCGGUUUGCAUGCAUGAUUUGAGGGGAAGACUAGAGUGUUUUAAAUCAUCAAUAAAAAGUGGAGAACAACAGAGGAUUGAGCAUCA
## Output 2.19 enrichment R

## Input Next entry: chr11:69466387:69466388:+_ENSG00000110092_ENST00000227507|hu_hu|FALSE|FALSE (ssRNA) RNA: GGGAGUUCUACAGUCCGACGAUCACACGUAAAGGAUGGAACCUAAUCCUCUCCCGAGACGCCUCCUUUGUGUUAAUGCCUAUUCUUACAACAGAGAAACAAGUACAUUAAUAUAAAAACGAGUUGAUUAUUGGGGUAUAAAAUCAACAGAGGAUUGAGCAUCA
## Output 5 enrichment R
